- System: THP-1
- assayProtocol: Antiinflammatory activity against human THP-1 cells assessed as inhibition of LPS induced IL-23 production preincubated with compound for 1 hr followed by LPS stimulation and measured after 18 hrs by cell based ELISA method
- Format: functional
attributeMeasured: IC50 (nM)

// worked examples, IC50 included
> print(dat)
                               linenotation  attributemeasured  measuredvalue
1  NC(=O)[C@@H]1[C@H](Nc2nc(Nc3ccc(N4CCOCC4)nc3)ncc2-c2cccc(F)c2)[C@H]2C=C[C@@H]1C2               IC50            210
2  NC(=O)[C@@H]1[C@H](Nc2nc(Nc3cccc(C(=O)N4CCCC4)c3)ncc2-c2ccccc2)[C@H]2C=C[C@@H]1C2               IC50            220
3  NC(=O)[C@@H]1[C@H](Nc2nc(Nc3cccc(C(=O)N4CCCC4)c3)ncc2-c2ccnc(F)c2)[C@H]2C=C[C@@H]1C2               IC50            100

[a] NC(=O)[C@@H]1[C@H](Nc2nc(Nc3ccc(-c4cnco4)cc3)ncc2-c2cccc(F)c2)[C@H]2C=C[C@@H]1C2
[b] CN1CCN(C(=O)c2cccc(Nc3ncc(-c4cccc(F)c4)c(N[C@H]4[C@@H](C(N)=O)[C@@H]5C=C[C@H]4C5)n3)c2)CC1
Which entry has a larger number for IC50, a or b ? Write the label of whichever entry you select. a
(a: 290 nM, b: 130 nM)

[A] CN1CCN(c2ccc(Nc3ncc(-c4cccc(F)c4)c(N[C@H]4[C@@H](C(N)=O)[C@@H]5C=C[C@H]4C5)n3)cn2)CC1
[B] NC(=O)[C@@H]1[C@H](Nc2nc(Nc3cccc(-c4cnco4)c3)ncc2-c2cccc(F)c2)[C@H]2C=C[C@@H]1C2
Which entry has a larger number for IC50, A or B ? Write the label of whichever entry you select. B

---

- assayedSystem: Interleukin-1 receptor-associated kinase 4 (Homo sapiens, UniProt Q9NWZ3)
- Sequence (Q9NWZ3 whole entry): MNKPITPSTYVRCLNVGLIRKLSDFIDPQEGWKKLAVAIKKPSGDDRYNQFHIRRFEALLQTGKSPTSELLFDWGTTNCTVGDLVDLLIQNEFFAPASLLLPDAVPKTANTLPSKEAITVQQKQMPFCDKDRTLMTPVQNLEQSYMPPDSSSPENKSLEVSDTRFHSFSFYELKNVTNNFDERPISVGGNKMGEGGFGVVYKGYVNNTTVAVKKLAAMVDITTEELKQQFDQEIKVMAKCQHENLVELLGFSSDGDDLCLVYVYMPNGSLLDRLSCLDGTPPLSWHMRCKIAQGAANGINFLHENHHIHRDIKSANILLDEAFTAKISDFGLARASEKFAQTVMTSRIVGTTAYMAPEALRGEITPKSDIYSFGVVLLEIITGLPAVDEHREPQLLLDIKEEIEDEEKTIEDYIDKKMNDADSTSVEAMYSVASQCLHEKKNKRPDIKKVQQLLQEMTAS
- assayProtocol: Inhibition of IRAK4 (unknown origin) in presence of MBP as substrate by ADP-Glo assay
pIC50: −log10 of the molar value.
attributeMeasured: pIC50

// worked examples, pIC50 included
> print(dat)
                               linenotation                             assayedsystem  measuredvalue
1  NC(=O)[C@@H]1[C@H](Nc2nc(Nc3ccnc(N4CCOCC4)c3)ncc2-c2cccc(F)c2)[C@H]2C=C[C@@H]1C2  Interleukin-1 receptor-associated kinase 4 (Homo sapiens, UniProt Q9NWZ3)           8.10
2  NC(=O)[C@@H]1[C@H](Nc2nc(Nc3ccc(-c4cnco4)cc3)ncc2-c2cccc(F)c2)[C@H]2C=C[C@@H]1C2  Interleukin-1 receptor-associated kinase 4 (Homo sapiens, UniProt Q9NWZ3)           7.43

[1] NC(=O)[C@@H]1[C@H](Nc2nc(Nc3ccc(C(=O)N4CCCC4)cc3)ncc2-c2cccnc2)[C@H]2C=C[C@@H]1C2
[2] NC(=O)[C@@H]1[C@H](Nc2nc(Nc3cccc(C(=O)N4CCCC4)c3)ncc2-c2cccc(F)c2)[C@H]2C=C[C@@H]1C2
Hey, which is lower on measured pIC50, 1 or 2 ? Write the label of whichever entry you select. 1
(1: 7.59, 2: 8.40)
